# Tested on: OCI-AML-4
# Test summary: Cell viability CellTiter-Glo, OCI-AML-4
# Type: cell-based
# Assay setup: OCI-AML-4, leukemia
Experimental readout: pIC50
Answers are plain numbers, as −log10 of the molar value.

Find the recorded pIC50 belonging to O=c1cc(-c2ccccc2)oc2cc(O)c(O)c(O)c12 [Compound SJ2858, baicalein] and report it.
4.61

* * *

# Tested on: COLO 320HSR
# Test summary: Cell viability CellTiter-Glo, COLO 320HSR
# Type: cell-based
# Assay setup: Homo sapiens, intestinal cancer
Experimental readout: IC50 (µM)
Answers are plain numbers, in µM.

Please tell me: IC50 of O=c1cc(-c2ccccc2)oc2cc(O)c(O)c(O)c12 [Compound SJ2858, baicalein] , system COLO 320HSR?
17.8

* * *

# Test system: SU-DHL-2
# Test summary: Cell viability CellTiter-Glo, SU-DHL-2
# Assay type: cell-based
# Assay setup: Homo sapiens; SU-DHL-2, lymphoma
Experimental readout: IC50
The number alone won't do; follow it with the unit.

Query IC50 on SU-DHL-2 for O=c1cc(-c2ccccc2)oc2cc(O)c(O)c(O)c12 [Compound SJ2858, baicalein]
6.2 µM

* * *

# Tested on: ACHN
# Test summary: Cell viability CellTiter-Glo, ACHN
# Assay type: cell-based
# Assay setup: Homo sapiens, kidney cancer
Experimental readout: pIC50
Numbers only, as −log10 of the molar value.

Field request: pIC50 | item: O=c1cc(-c2ccccc2)oc2cc(O)c(O)c(O)c12 [Compound SJ2858, baicalein]
4.75

* * *

# Test system: NCI-H 1793
# Test summary: Cell viability CellTiter-Glo, NCI-H 1793
# Assay type: cell-based
# Assay setup: Homo sapiens, NCI-H1793; NCI-H 1793, lung cancer
Experimental readout: IC50 (µM)
One number for each entry, in µM.

Suppose we examine the compound `O=c1cc(-c2ccccc2)oc2cc(O)c(O)c(O)c12` ; what IC50 value has been reported?
35.2

* * *

# Test system: NCI-H1155
# Test summary: Cell viability CellTiter-Glo, NCI-H1155
# Assay type: cell-based
# Assay setup: Homo sapiens; NCI-H1155, lung cancer
# Protocol: Cell viability was measured by using the Promega CellTiter-Glo kit, the kit reflected cell viability by directly measuring intracellular ATP content. Different cancer cells were cultured in culture medium, and the 50% inhibitory concentration IC50 of the compound SJ2858 was measured by Promega CellTiter-Glo kit. The name source and culture condition of each tumor cell line were as follows: Cell line NCI-H1155 (ATCC, No. CRL-5818) was cultured in serum-free ACL-4 medium (+P/S);
Experimental readout: pIC50
One number for each entry, as −log10 of the molar value.

Give the measured pIC50 of `O=c1cc(-c2ccccc2)oc2cc(O)c(O)c(O)c12` .
4.71

* * *

# Test system: SNU-398
# Test summary: Cell viability CellTiter-Glo, SNU-398
# Assay type: cell-based
# Assay setup: Homo sapiens; SNU-398, liver cancer
Experimental readout: IC50 (µM)
Answers are plain numbers, in µM.

Notebook: pull reported IC50 for SNU-398, entry O=c1cc(-c2ccccc2)oc2cc(O)c(O)c(O)c12 [Compound SJ2858, baicalein]
13

* * *

# Tested on: GB-1
# Test summary: Cell viability CellTiter-Glo, GB-1
# Assay type: cell-based
# Assay setup: Homo sapiens; GB-1, brain cancer
Experimental readout: IC50 (µM)
Numbers only, in µM.

// IC50 lookup, key: O=c1cc(-c2ccccc2)oc2cc(O)c(O)c(O)c12 [Compound SJ2858, baicalein]
12.4

* * *

# Test system: Daoy cell
# Test summary: Cell viability, Promega CellTiter-Glo, Daoy cell
# Format: cell-based, human
# Assay setup: Homo sapiens, Daoy, Daoy cell with CSA (1.5 μM mPTP inhibitor); read-out: IC50 of cell viability inhibition
Experimental readout: IC50 (µM)
Answers are plain numbers, in µM.

Param readout = IC50; param system = Daoy cell; param query = `O=c1cc(-c2ccccc2)oc2cc(O)c(O)c(O)c12` ; response: value
13.2

* * *

# Tested on: HCC1806
# Test summary: Cell viability CellTiter-Glo, HCC1806
# Assay type: cell-based
# Assay setup: Homo sapiens; HCC1806, breast cancer
Experimental readout: IC50
The number alone won't do; follow it with the unit.

Which IC50 value belongs to `O=c1cc(-c2ccccc2)oc2cc(O)c(O)c(O)c12` ?
25.7 µM

* * *

# Tested on: U-937
# Test summary: Cell viability CellTiter-Glo, U-937
# Assay type: cell-based
# Assay setup: Homo sapiens; U-937, lymphoma
Experimental readout: pIC50
One number for each entry, as −log10 of the molar value.

pIC50 of O=c1cc(-c2ccccc2)oc2cc(O)c(O)c(O)c12 [Compound SJ2858, baicalein] on U-937?
4.41

* * *

# Tested on: MIA PaCa-2
# Test summary: Cell viability CellTiter-Glo, MIA PaCa-2
# Format: cell-based
# Assay setup: Homo sapiens; MIA PaCa-2, pancreatic cancer
Experimental readout: IC50 (µM)
Numbers only, in µM.

What value of IC50 has been reported for the following compound? `O=c1cc(-c2ccccc2)oc2cc(O)c(O)c(O)c12`
19.7

* * *

# System: GAK
# Test summary: Cell viability CellTiter-Glo, GAK
# Format: cell-based
# Assay setup: melanoma
Experimental readout: pIC50
Answers are plain numbers, as −log10 of the molar value.

// pIC50 lookup, key: `O=c1cc(-c2ccccc2)oc2cc(O)c(O)c(O)c12`
4.64

* * *

# Test system: G-402
# Test summary: Cell viability CellTiter-Glo, G-402
# Format: cell-based
# Assay setup: Homo sapiens; G-402, kidney cancer
Experimental readout: IC50 (µM)
One number for each entry, in µM.

Reported IC50, compound `O=c1cc(-c2ccccc2)oc2cc(O)c(O)c(O)c12` : ____
4.2
